- System: α-isomaltosylglucosaccharide-forming enzyme from Bacillus globisporus C9 strain
- MEASUREMENT_PROTOCOL: Specificity of saccharide transferring reaction acceptor, enzyme of Strain C9
- Assay type: biochemical
- Design: key: −: no saccharide-transferred product was detected through transferring reaction to acceptor; ±: a saccharide-transferred product was detected in an amount of less than one percent through transfer reaction to acceptor; +: a saccharide-transferred product was detected in an amount of at least one percent but less than ten percent through transferring reaction to acceptor; ++: a saccharide-transferred product was detected in an amount of at least ten percent through transferring reaction to acceptor
- CONDITION_CONTEXT: 1.6% acceptor, 4% PINE-DEX #100 as donor, one unit/g donor, 30° C., pH 6.0, 24 hours; GLC or HPLC
PARAMETER: Product of saccharide transferring reaction, Enzyme of Strain C9

[
  {
    "STRUCTURE_AS_SMILES": "OC[C@H]1O[C@@H]2O[C@H]3[C@H](O)[C@@H](O)[C@@H](O[C@H]4[C@H](O)[C@@H](O)[C@@H](O[C@H]5[C@H](O)[C@@H](O)[C@@H](O[C@H]6[C@H](O)[C@@H](O)[C@@H](O[C@H]7[C@H](O)[C@@H](O)[C@@H](O[C@H]8[C@H](O)[C@@H](O)[C@@H](O[C@H]1[C@H](O)[C@H]2O)O[C@@H]8CO)O[C@@H]7CO)O[C@@H]6CO)O[C@@H]5CO)O[C@@H]4CO)O[C@@H]3CO",
    "EXPERIMENTAL_VALUE": "−"
  },
  {
    "STRUCTURE_AS_SMILES": "C[C@H](O)[C@H](O)[C@@H](O)[C@@H](O)C=O",
    "EXPERIMENTAL_VALUE": "−"
  },
  {
    "STRUCTURE_AS_SMILES": "OC[C@H]1O[C@@H]2O[C@H]3[C@H](O)[C@@H](O)[C@@H](O[C@H]4[C@H](O)[C@@H](O)[C@@H](O[C@H]5[C@H](O)[C@@H](O)[C@@H](O[C@H]6[C@H](O)[C@@H](O)[C@@H](O[C@H]7[C@H](O)[C@@H](O)[C@@H](O[C@H]8[C@H](O)[C@@H](O)[C@@H](O[C@H]9[C@H](O)[C@@H](O)[C@@H](O[C@H]1[C@H](O)[C@H]2O)O[C@@H]9CO)O[C@@H]8CO)O[C@@H]7CO)O[C@@H]6CO)O[C@@H]5CO)O[C@@H]4CO)O[C@@H]3CO",
    "EXPERIMENTAL_VALUE": "−"
  }
]
